System: Enterococcus faecalis
Test: Antimicrobial activity against Enterococcus faecalis 12964
ASSAY METRIC: IC50 (µM)
Express your answer in µM, writing the number without its unit.

Provide the documented IC50 with Enterococcus faecalis as the system for CC(=CCn1c[n+](C)c2ncnc(N)c21)CC[C@@]1(C)[C@H](C)CC[C@@]2(C)C(C)=CCC[C@H]12 13.7

Where do these numbers come from? They come from BindingDB's records for doi:10.1021/np980173q.
